- Tested on: Mus musculus
- PROCEDURE TEXT: Antiinflammatory activity in ICR mouse assessed as inhibition of TPA-induced ear edema by measuring reduction in weight of ear punches applied topically measured 4 hrs post TPA-challenge
- Type: functional
OBSERVABLE: ED50

{"columns": ["MOLECULE", "OBSERVABLE", "RESULT"],
 "data": [
  ["COc1ccc2c(c1)c(CC(=O)O)c(C)n2C(=O)c1ccc(Cl)cc1", "ED50", "0.49 mg"],
  ["COc1ccc(CCNC(C)(COC(C)=O)P(=O)(OC)OC)cc1OC (racemic)", "ED50", "0.77 to 1.29 mg"],
  ["COP(=O)(OC)C(C)(O)COC(C)=O (racemic)", "ED50", "0.1 to 10.14 mg"],
  ["COP(=O)(OC)C(C)(CO)N[C@@H](C)c1ccccc1 (mixture of isomers)", "ED50", "0.95 to 1.05 mg"],
  ["C=CCNC(C)(COC(C)=O)P(=O)(OC)OC (racemic)", "ED50", "0.59 to 1.68 mg"],
  ["COc1ccc(CCNC(C)(CO)P(=O)(OC)OC)cc1OC (racemic)", "ED50", "0.99 to 1 mg"],
  ["COP(=O)(OC)C(C)(CO)NCc1ccccc1 (racemic)", "ED50", "0.28 to 3.63 mg"],
  ["COP(=O)(OC)C(C)(COC(C)=O)NCc1ccccc1 (racemic)", "ED50", "0.68 to 1.46 mg"],
  ["COP(=O)(OC)C(C)(COC(C)=O)NCC1CCCCC1 (racemic)", "ED50", "0.95 to 1.05 mg"],
  ["COP(=O)(OC)C(C)(COC(C)=O)N[C@@H](C)c1ccccc1 (mixture of isomers)", "ED50", "0.73 to 1.37 mg"],
  ["COc1ccc(CNC(C)(COC(C)=O)P(=O)(OC)OC)cc1 (racemic)", "ED50", "0.58 to 1.73 mg"]
]}
